Recorded values, source patent US20260242735A1.

Molecular target: human CD33 variant Y49T (human, UniProt P20138 18-364)
Sequence (P20138 18-364 Y49T limits assumed): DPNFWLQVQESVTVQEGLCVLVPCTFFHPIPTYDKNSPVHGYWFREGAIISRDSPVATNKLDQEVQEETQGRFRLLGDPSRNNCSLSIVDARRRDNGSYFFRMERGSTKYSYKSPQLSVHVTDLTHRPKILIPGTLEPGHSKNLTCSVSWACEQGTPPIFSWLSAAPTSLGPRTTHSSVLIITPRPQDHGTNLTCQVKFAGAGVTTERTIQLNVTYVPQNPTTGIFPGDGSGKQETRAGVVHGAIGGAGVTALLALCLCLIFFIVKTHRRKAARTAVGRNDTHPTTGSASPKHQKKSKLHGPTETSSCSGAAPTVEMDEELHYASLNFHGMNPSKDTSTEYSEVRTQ
Experiment: flow cytometry, IgG on cells expressing the mutant
Each entry below carries its reported Mean % WT Binding.
parameter: Mean % WT Binding

binder	parameter	endpointResult
Refmab #1 (antibody, human IgG1, V domains shown, Tested in IgG format; human IgG1 (Absolute Antibody hP67.6, Cat. No. Ab00283-10.0); also called hP67.6) VH: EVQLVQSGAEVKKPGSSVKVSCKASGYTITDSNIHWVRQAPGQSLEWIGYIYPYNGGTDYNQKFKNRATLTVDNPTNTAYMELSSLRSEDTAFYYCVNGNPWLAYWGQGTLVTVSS VL: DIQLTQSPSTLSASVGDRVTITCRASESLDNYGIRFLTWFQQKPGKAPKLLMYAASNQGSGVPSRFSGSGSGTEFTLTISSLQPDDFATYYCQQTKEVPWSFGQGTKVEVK	Mean % WT Binding	108 % of WT
Refmab #4 (antibody, human IgG1, V domains shown, Tested in IgG format; human IgG1 Fc silent (PG-LALA)) VH: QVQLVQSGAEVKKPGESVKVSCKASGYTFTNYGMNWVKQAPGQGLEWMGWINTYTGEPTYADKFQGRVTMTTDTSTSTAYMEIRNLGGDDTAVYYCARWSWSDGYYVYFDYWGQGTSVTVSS VL: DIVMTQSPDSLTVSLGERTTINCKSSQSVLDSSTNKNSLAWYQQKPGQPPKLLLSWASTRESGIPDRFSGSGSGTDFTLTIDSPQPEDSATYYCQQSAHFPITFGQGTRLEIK	Mean % WT Binding	2.8 % of WT
Refmab #2 (antibody, human IgG1, V domains shown, Tested in IgG format; human IgG1 Fc silent (PG-LALA)) VH: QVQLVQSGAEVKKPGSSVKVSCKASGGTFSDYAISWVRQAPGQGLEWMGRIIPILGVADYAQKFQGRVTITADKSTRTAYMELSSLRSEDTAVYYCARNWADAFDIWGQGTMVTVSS VL: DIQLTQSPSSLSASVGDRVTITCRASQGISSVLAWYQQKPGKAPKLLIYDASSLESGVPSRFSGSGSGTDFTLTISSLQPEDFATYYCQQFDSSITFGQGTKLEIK	Mean % WT Binding	76.3 % of WT
Refmab #3 (antibody, human IgG1, V domains shown, Tested in IgG format; human IgG1 Fc silent (PG-LALA)) VH: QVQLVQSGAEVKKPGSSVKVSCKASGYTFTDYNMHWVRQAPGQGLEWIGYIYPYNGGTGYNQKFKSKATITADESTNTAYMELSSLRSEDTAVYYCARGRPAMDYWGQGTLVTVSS VL: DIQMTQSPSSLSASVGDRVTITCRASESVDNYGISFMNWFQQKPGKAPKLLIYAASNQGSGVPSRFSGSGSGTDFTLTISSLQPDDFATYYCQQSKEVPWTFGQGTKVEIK	Mean % WT Binding	96.5 % of WT
